# System: Christensenella sp. MNH04863
# Assay: Antibiotic susceptibility testing by disk diffusion method
# Assay type: cell-based
# Excerpt: The disk diffusion method was used to conduct the antibiotic susceptibility testing of Christensenella sp. MNH04863. Christensenella sp.
Parameter Measured: Susceptibility of Christensenella sp. MNH04863 to the antibiotic

{"Molecule": "CO/N=C(\\C(=O)N[C@@H]1C(=O)N2C(C(=O)O)=C(CSc3nc(=O)c(=O)[nH]n3C)CS[C@H]12)c1csc(N)n1 [Ceftriaxone (CTR), Ceftriaxone]", "Experimental Target": "Christensenella sp. MNH04863", "Test Result": "sensitive"}
{"Molecule": "CCC[C@@H]1C[C@@H](C(=O)N[C@@H]([C@H]2O[C@H](SC)[C@H](O)[C@@H](O)[C@H]2O)[C@@H](C)O)N(C)C1 [Lincomycin (MY), Lincomycin]", "Experimental Target": "Christensenella sp. MNH04863", "Test Result": "sensitive"}
